Measured Percent Effect of individual entries
target: Tyrosyl-tRNA synthetase, putative (Trypanosoma cruzi (strain CL Brener)) (UniProt Q4DSP6); experiment: Trypanosoma cruzi tyrosyl tRNA synthetase (TcYRS) _High Tyrosine SOP; assay type: functional; parameters: scale not given: in the data most compounds retested in dose-response had high values; conditions: 30 µM
Sequence (Q4DSP6 as listed by the source): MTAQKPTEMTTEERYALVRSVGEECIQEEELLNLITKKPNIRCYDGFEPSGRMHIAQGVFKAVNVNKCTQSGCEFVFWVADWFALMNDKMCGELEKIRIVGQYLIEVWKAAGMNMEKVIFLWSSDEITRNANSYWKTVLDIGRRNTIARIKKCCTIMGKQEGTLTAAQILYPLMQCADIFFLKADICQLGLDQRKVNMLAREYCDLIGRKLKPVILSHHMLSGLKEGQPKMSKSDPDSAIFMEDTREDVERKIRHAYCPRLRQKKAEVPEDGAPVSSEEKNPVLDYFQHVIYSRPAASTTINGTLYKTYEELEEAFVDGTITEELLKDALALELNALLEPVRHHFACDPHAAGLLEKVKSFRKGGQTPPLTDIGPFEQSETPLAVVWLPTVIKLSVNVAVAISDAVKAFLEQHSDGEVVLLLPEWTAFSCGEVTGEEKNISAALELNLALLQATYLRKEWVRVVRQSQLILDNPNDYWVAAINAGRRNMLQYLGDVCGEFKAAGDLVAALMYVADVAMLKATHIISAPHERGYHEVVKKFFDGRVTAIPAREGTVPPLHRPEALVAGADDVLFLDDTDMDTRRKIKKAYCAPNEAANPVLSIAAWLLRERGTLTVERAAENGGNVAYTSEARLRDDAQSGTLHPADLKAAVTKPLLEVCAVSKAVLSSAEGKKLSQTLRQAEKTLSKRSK
Answer with the value and then the unit.

// query API: value(readout= Percent Effect, system= Tyrosyl-tRNA synthetase, putative (Trypanosoma cruzi (strain CL Brener)) (UniProt Q4DSP6), query= COc1cccc(CN2CCC3(CCN(C(=O)[C@H]4CCCO4)CC3)C2)c1 )
// result 10.6%

// query Lab request: please report Percent Effect under test system Tyrosyl-tRNA synthetase, putative (Trypanosoma cruzi (strain CL Brener)) (UniProt Q4DSP6) for CCc1nc(C2CCCN2C(=O)c2ncoc2CC)no1 (centres undefined)
// result 2.39%

// query Reported Percent Effect for Tyrosyl-tRNA synthetase, putative (Trypanosoma cruzi (strain CL Brener)) (UniProt Q4DSP6), given Cc1noc(C(C)C)c1C(=O)NCCCOC(C)C ?
// result 0.98%

* * *

target: Sialic acid-binding Ig-like lectin 9 (Homo sapiens) (UniProt Q9Y336); assay: Hs-Siglec9 ALPHAscreen SOP 20170721; set-up: scale not given: direction of the effect not stated beside the values; conditions: 10 µM
Sequence (Q9Y336 whole entry): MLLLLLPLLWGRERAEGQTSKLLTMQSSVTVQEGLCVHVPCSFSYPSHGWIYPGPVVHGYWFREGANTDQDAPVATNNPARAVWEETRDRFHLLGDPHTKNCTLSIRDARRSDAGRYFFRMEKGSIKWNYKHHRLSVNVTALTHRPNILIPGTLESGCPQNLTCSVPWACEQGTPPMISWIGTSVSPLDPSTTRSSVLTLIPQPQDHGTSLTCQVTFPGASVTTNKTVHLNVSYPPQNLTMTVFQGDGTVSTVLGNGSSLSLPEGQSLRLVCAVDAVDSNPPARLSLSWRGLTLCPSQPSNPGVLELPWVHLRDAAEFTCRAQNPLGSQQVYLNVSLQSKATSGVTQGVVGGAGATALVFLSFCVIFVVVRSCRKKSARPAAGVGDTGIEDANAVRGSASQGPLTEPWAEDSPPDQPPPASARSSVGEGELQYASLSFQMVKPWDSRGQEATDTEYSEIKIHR
Reported Percent Effect by item:
Form entry: value (%) — number only.

Below are worked cases with known answers.
CN(CCC(F)(F)F)C(=O)[C@H]1CSCN1C(=O)OC(C)(C)C : 1.23
Cc1ccc(CN2CCCC3(CCN(S(=O)(=O)N(C)C)C3)C2)o1 (stereo unspecified) : 7.3

// query Which measured Percent Effect value corresponds to c1cncc(CN2CCc3ncnc(C4CCOC4)c3CC2)c1 (stereo unspecified) ?
// result -7

// query Fill in: Percent Effect of Cc1cc(C)n(-c2cncc(N3CCN(C(=O)C(C)(C)C)CC3)n2)n1 is ___
// result -2.19

* * *

Items are presented alongside their recorded Percent Effect.
biological target: Tyrosyl-tRNA synthetase, putative (Trypanosoma cruzi (strain CL Brener)) (UniProt Q4DSP6); test: Trypanosoma cruzi tyrosyl tRNA synthetase (TcYRS) _High Tyrosine SOP; format: functional; parameters: scale not given: in the data most compounds retested in dose-response had high values; conditions: 30 µM
State just the number; it will be interpreted in %.

COc1cccc(C(=O)NCCCN2CCc3ccccc3C2)c1OC : 2.63

// query Fill in the blank: the reported Percent Effect of CNc1oc(-c2ccc(OC)c(S(=O)(=O)N3CCCCC3)c2)nc1C#N is ____.
// result 5.29

// query Please give the measured Percent Effect for this compound: CCC(=O)N1CCC2(CC1)COc1ccccc1S(=O)(=O)N(C)C2
// result 7.53

// query Percent Effect for Cc1nc(C)c(CC(=O)Nc2ncc(C)s2)c(=O)[nH]1 ?
// result 5.39

// query Please give the measured Percent Effect for this compound: Cn1cc(CC(=O)N2CCC(Nc3cccnn3)CC2)c2ccccc21
// result 7.84

// query Recorded Percent Effect of Cc1ccc(C(=O)N2CCN(Cc3ccsc3)CC2)n1C , please.
// result 5.79

// query Which measured Percent Effect value corresponds to Cc1nc(C)n(CC2CN(CCOc3ccccc3F)CCO2)n1 (stereo not drawn) ?
// result -1.58

// query What does the data say about its Percent Effect? Entry: CC(O)CN1CCN(C(=O)c2cn(-c3ccccc3Cl)nn2)CC1 (stereo not drawn)
// result 3.23

// query Tell me the measured Percent Effect of O=C1COC2(COCCN(Cc3ccsc3)C2)CN1c1ccc(F)cc1 (stereo not drawn) , please.
// result 4.74

// query Any idea what its Percent Effect is? The compound is Cn1c(CNc2c(F)cccc2-n2cccn2)cc(=O)n(C)c1=O
// result 5.26

// query Look at this compound and give its reported Percent Effect. Cc1oc(C)c(C(=O)NCc2ccccc2S(=O)(=O)N(C)C)c1C
// result 1.47

// query Look at this compound and give its reported Percent Effect. CCNC(=O)[C@@H]1C[C@@H](NC(=O)Cc2ccccn2)CN1CCCSC
// result 0

// query Item COc1cccc(CCC2CCCN(C(=O)C3=NN(C)C(=O)CC3)C2)c1 (stereo not drawn) has what recorded Percent Effect?
// result 3.7
